The entries below are paired with their reported viability.
Experiment: reducers of endogenous Her2 protein level, primary screen, SKBR3 breast tumor cells, AlphaScreen, ATP viability (AID 461);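 further: percent of carrier control wells set as 100% viability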
Conditions: 18-24 h, measured here: SKBR3 viability, ATP luminescence, at 10 µM
Write the answer as a number in %, unit excluded.

Example compounds with recorded viability:
{"compound": "Cc1oc(-c2ccccc2F)nc1CS(=O)(=O)CC(=O)NCc1ccco1", "test readout": "viability", "result unit": "%", "recorded measurement": 116}
{"compound": "O=C(CSc1nnnn1-c1ccc(Cl)cc1)NC(=O)Nc1ccc2c(c1)OCCO2", "test readout": "viability", "result unit": "%", "recorded measurement": 104}
{"compound": "CCOC(=O)N1CCN(C(=O)CSCC(=O)Nc2nc(-c3ccc(OC)cc3)cs2)CC1", "test readout": "viability", "result unit": "%", "recorded measurement": 116}
{"compound": "COc1ccc(-c2ccc(CCC(=O)O)n2NC(=O)c2cccs2)cc1", "test readout": "viability", "result unit": "%", "recorded measurement": 122}
{"compound": "Cc1ccc(-c2cc(C(=O)O)n[nH]2)o1", "test readout": "viability", "result unit": "%", "recorded measurement": 95.5}
{"compound": "CCCN1CCN(C(=O)Cn2c(=O)oc3cc(S(=O)(=O)NCc4ccccc4)ccc32)CC1", "test readout": "viability", "result unit": "%", "recorded measurement": 92.5}
{"compound": "CCCCOn1c(C)c(C(=O)OCC)c2c3nonc3ccc21", "test readout": "viability", "result unit": "%", "recorded measurement": 98.5}
{"compound": "COc1ccc(S(=O)(=O)C(C#N)c2nc3ccccc3nc2N2CCCC(C)C2)cc1 (stereo unspecified)", "test readout": "viability", "result unit": "%", "recorded measurement": 112}

**Query** Return the recorded viability value; entry: CCSC1(SCC)N=C(N)C2(C#N)C(c3ccccc3)NC(C)=C(C)C12C#N (stereo unspecified)
**Result** 95

**Query** Return the recorded viability value; entry: c1ccc(-c2nn3c(Cn4nnc5ccccc54)nnc3s2)nc1
**Result** 102

**Query** Return the recorded viability value; entry: Cc1cc(Cl)ccc1OCCCC(=O)N1CCOCC1
**Result** 90

====

Experiment: growth suppression of yeast trafficking mutant, preliminary HTS, modulators of trafficking downstream of Golgi apparatus project, 1536-format plate, OD 615 nm (AID 637)
Details: yeast transport mutant growth, absorbance 615 nm, 18 h
The source made the active and inactive calls. Cut-off read from the data, not from the text of the source: active = inhibition above about 30%; inactive = the rest.
Respond only with the outcome that fits, drawn from label 1 = active, label 0 = inactive

{"molecule": "CCN(CC)C(=O)C1CCCN(Cc2ccc(N(C)C)cc2)C1 (stereo unspecified)", "class name": "label 0"}
{"molecule": "CC(C)COc1nc2ccccc2nc1C(C#N)C(=O)NC1CCCCC1 (stereo unspecified)", "class name": "label 1"}
{"molecule": "COCCCn1c2nc3ccccc3nc2c2c(=O)n(-c3ccccc3OC)cnc21", "class name": "label 0"}
{"molecule": "CCOC(=O)C1CCN(c2c(Nc3ccc4c(c3)OCCO4)c(=O)c2=O)CC1", "class name": "label 0"}
{"molecule": "CCCCCc1c(C)nc(N2CCc3ccccc32)[nH]c1=O", "class name": "label 0"}
{"molecule": "Cc1ccc(-n2nc(-c3cccs3)cc2C(=O)NCC2CCCO2)c(C)c1 (stereo unspecified)", "class name": "label 0"}
{"molecule": "CC(=O)OCC1OC(c2ccccc2)C(OC(C)=O)C(OC(C)=O)C1OC(C)=O (stereo unspecified)", "class name": "label 0"}
{"molecule": "CC1=C(C(=O)OCCOC(C)C)C(c2cc3c(cc2Br)OCO3)C2=C(CCCC2=O)N1 (stereo unspecified)", "class name": "label 0"}

**Query** Record lookup: outcome of this test for Nc1nc(CSCc2ccccc2)nc(N2CCOCC2)n1 ?
**Result** label 0

**Query** Record lookup: outcome of this test for COc1ccc(NS(=O)(=O)c2c(C)[nH]c(=O)[nH]c2=O)c(OC)c1 ?
**Result** label 0

**Query** Record lookup: outcome of this test for CCNC(=O)C1CC(=O)N(Cc2ccc3c(c2)OCO3)C(=Nc2ccc(F)cc2)S1 (stereo unspecified) ?
**Result** label 0

====

Assay: RAM signaling pathway blockade in yeast – S. cerevisiae, Pdr1DBD-CYC8 efflux-inhibited sensitized strain, primary screen (AID 1298);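 further: 0% = DMSO untreated cells without growth and 100% = 10 µM 1-NA-PP1 full growth; higher means more yeast growth rescued from 5-FOA killing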
Details: S. cerevisiae cbk1-as DSE1-URA3 strain, 5-FOA growth OD615, 2 d; at 50 µM; stronger effect = higher value
The entries below are paired with their reported RAM network inhibition.
Write the answer as a number in %, unit excluded.

{"compound": "CCN(CC)C(=O)CSc1nsc(SCC(=O)N(CC)CC)c1C#N", "result unit": "%", "recorded measurement": 6.13}
{"compound": "c1cc2c3c(cccc3c1)C(N1CCCCC1)=N2", "result unit": "%", "recorded measurement": 1.88}
{"compound": "CN1C(=O)C(O)(CC(=O)c2cccnc2)c2ccccc21 (stereo unspecified)", "result unit": "%", "recorded measurement": 1.88}
{"compound": "COc1ccc(N(CC(=O)NCc2ccc3c(c2)OCO3)S(=O)(=O)c2c(C)nn(C)c2C)cc1", "result unit": "%", "recorded measurement": 2.04}

**Query** Return the recorded RAM network inhibition value; entry: Cc1cccc(NC(=O)C2CCCN2S(=O)(=O)c2cccc3cccnc23)c1 (stereo unspecified)
**Result** 1.73

**Query** Return the recorded RAM network inhibition value; entry: CCOC(=O)c1c(CC(C)C)csc1NC=O
**Result** 0.88

====

Experiment: SK-BR-3 cell growth inhibitors, pilot screen, 24 h, human (AID 572);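 further: compound exposure lasted between 18 and 24 h rather than exactly 24 h; 100% = carrier-treated control wells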
Conditions: SK-BR-3 viability, CellTiter-Glo luminescence, at 10 µM, stronger effect = lower value
The entries below are paired with their reported viability.
Write the answer as a number in %, unit excluded.

{"molecule": "COCCn1nnnc1C(c1cccs1)N1CCN(c2cc(C)ccc2C)CC1 (stereo unspecified)", "recorded measurement": 107}
{"molecule": "COC(=O)Nc1nnc(CCc2ccccc2)s1", "recorded measurement": 115}
{"molecule": "CC(n1cnnn1)C12CC3CC(CC(C3)C1)C2 (stereo unspecified)", "recorded measurement": 88.5}

**Query** Return the recorded viability value; entry: Cc1cccc(-n2c(Cc3cc(=O)[nH]c(=O)[nH]3)nnc2SCC(=O)NCc2ccco2)c1
**Result** 99.5

**Query** Return the recorded viability value; entry: CC(Oc1ccc(Br)cc1)C(=O)N1CCc2ccccc21 (stereo unspecified)
**Result** 85.5

**Query** Return the recorded viability value; entry: COc1ccc(CN2CC(C(=O)NCCCOC(C)C)CC2=O)cc1 (stereo unspecified)
**Result** 101

====

Assay: inhibitors of the yeast RAM network, pilot screen, dse1pr::URA3 reporter, 5-FOA selection (AID 869);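 further: 0% = DMSO wells with no growth and 100% = 10 µM 1-NA-PP1 with full growth; RAM network block rescues cells from 5-FOA so hits raise OD615 growth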
Conditions: S. cerevisiae dse1pr::URA3 5-FOA growth, OD615, 2 d; at 10 µM; stronger effect = higher value; strain carries analog-sensitive mutant Cbk1 kinase
The entries below are paired with their reported inhibition.
Write the answer as a number in %, unit excluded.

**Query** Return the recorded inhibition value; entry: O=C(NCc1cccs1)C1CCCN(S(=O)(=O)c2ccc3c(c2)OCO3)C1 (stereo unspecified)
**Result** 1.46

====

Assay: growth suppression of beta-catenin knockout HCT116, pilot screen, human colon tumor cells (AID 823);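 further: 0% = wells killed by 20 µM Hyamine and 100% = untreated DMSO cell wells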
Details: CellTiter-Glo, 60 h, at 10 µM
Inconclusive results are not listed. The source made the active and inactive calls.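 Rule for the calls: active = cell viability at or below a set limit in both duplicate runs, the limit being the all-compound median minus 4 SD (cut at about 23% in these data, passing the limit was not always enough); inconclusive = no clear call, values can overlap the other calls; inactive = the rest.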
Respond only with the outcome that fits, drawn from 1 = active, -1 = inactive

See these solved cases before continuing.
{"compound": "Cn1c(Cn2c(=O)sc3ccccc32)nnc1SCC(=O)NCc1ccc2c(c1)OCO2", "class name": -1}
{"compound": "CC(=O)c1ccc(OCC(O)CN2CCN(Cc3ccccc3)CC2)cc1 (stereo not drawn)", "class name": -1}
{"compound": "COc1ccc(C)cc1NC(=O)CSc1nnc(-c2ccc(OC)c(OC)c2)n1N", "class name": -1}

**Query** Record lookup: outcome of this test for CC1CN(C(c2cccs2)c2sc3ncnn3c2O)CC(C)O1 (stereo not drawn) ?
**Result** -1

**Query** Record lookup: outcome of this test for O=C(c1ccccn1)N1CCN(c2ccc(C(F)(F)F)cn2)CC1 ?
**Result** -1

**Query** Record lookup: outcome of this test for CN1CCCN(Cc2ccccc2C(F)(F)F)CC1 ?
**Result** -1

**Query** Record lookup: outcome of this test for O=C(CNS(=O)(=O)c1ccc(C(=O)N2CCCCC2)cc1)N1CCCCC1 ?
**Result** -1

**Query** Record lookup: outcome of this test for CC1CCCCN1CCNC(=O)c1cnn2ccccc12 (stereo not drawn) ?
**Result** -1

**Query** Record lookup: outcome of this test for COCCNC(=O)c1cn(C)c(=O)c2cc(OC)c(OC)cc12 ?
**Result** -1

**Query** Record lookup: outcome of this test for CCOCCCNC(=O)c1cc2c(=O)n3cccc(C)c3nc2n1C ?
**Result** 1

**Query** Record lookup: outcome of this test for CCOc1ccc(N(CC(=O)NCCSc2ccccn2)S(C)(=O)=O)cc1 ?
**Result** -1

**Query** Record lookup: outcome of this test for Cc1cc(C(C)(C)C)oc1C(=O)Nc1ccc(CC(=O)O)cc1 ?
**Result** -1

**Query** Record lookup: outcome of this test for CC(C)(CC(=O)O)Cc1nc(-c2ccc(Cl)cc2)no1 ?
**Result** -1
